- TEST_TARGET: cloned human 5-HT1A receptors (Homo sapiens)
- Construct: expressed in transfected cells; membranes
- Sequence (P08908 whole entry): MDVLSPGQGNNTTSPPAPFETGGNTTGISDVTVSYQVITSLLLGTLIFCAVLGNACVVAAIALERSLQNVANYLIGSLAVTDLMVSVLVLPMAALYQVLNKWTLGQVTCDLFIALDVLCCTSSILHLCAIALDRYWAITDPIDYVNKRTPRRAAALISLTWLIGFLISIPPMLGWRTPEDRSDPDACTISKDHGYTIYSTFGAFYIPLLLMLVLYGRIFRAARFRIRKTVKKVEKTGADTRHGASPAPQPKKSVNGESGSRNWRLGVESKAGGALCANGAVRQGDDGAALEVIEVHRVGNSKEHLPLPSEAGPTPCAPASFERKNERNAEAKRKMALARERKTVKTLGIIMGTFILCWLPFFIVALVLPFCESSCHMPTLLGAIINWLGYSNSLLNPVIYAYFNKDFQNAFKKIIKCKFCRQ
- EXPERIMENTAL_PROTOCOL: [35S]-GTPγS binding to assess agonism/antagonism at the 5-HT1A receptor
- Format: biochemical
- CONDITIONS_USED: n=1; cloned human 5-HT1A receptor membranes; read-out: [35S]GTPgS IC50
- Protocol: Assessment of Agonism/Antagonism at the 5-HT1A Receptor Using [^35S]-GTPγS Binding to Cloned Human 5-HT1A Receptors: The [^35S]-GTPγS binding assay was similar to that used by Lazareno and Birdsall (Br. J. Pharmacol. 1993, 109, 1120). Briefly, 5-HT1A cloned receptor membrane fragments (as used for 5-HT1A receptor binding assays) were stored at −70° C. until needed. […] Bound radioactivity was counted and analyzed as above.
pIC50: −log10 of the molar value.

| MOLECULE | pIC50 |
| --- | --- |
| COc1cccc2c1O[C@@H](CN1C3CCC1CC(O)(c1csc4ccccc14)C3)CO2 (some centres unmarked) | 7.44 |
| COc1cccc2c1O[C@@H](CN1C3CCC1CC(O)(c1ccccn1)C3)CO2 (some centres unmarked) | 5.83 |

###

Below, each entry is listed alongside its reported melting point.

| MOLECULE | melting point |
| --- | --- |
| CCOc1cccc2c1O[C@@H](CN1C3CCC1CC(O)(c1ccccc1)C3)CO2 (stereo partly drawn) [Example 2] | 152 to 155 °C |
| CCOc1cccc2c1O[C@@H](CN1C3CCC1CC(O)(c1ccccn1)C3)CO2 (stereo partly drawn) [Example 4] | 95 to 99 °C |
| COc1ccccc1C1(O)CC2CCC(C1)N2C[C@H]1COc2cccc(OC)c2O1 (stereo partly drawn) [Example 6] | 176 to 178 °C |

###

- TEST_TARGET: cloned human 5-HT1A receptors (Homo sapiens)
- Construct: expressed in transfected cells; membranes
- EXPERIMENTAL_PROTOCOL: [35S]-GTPγS binding to assess agonism/antagonism at the 5-HT1A receptor
- Type: biochemical
Below, each entry is listed alongside its reported IC50.

| MOLECULE | MEASURE_UNIT | IC50 |
| --- | --- | --- |
| COc1cccc2c1O[C@@H](CN1C3CCC1CC(O)(c1ccccc1)C3)CO2 (some centres unmarked) | µM | 0.025 |
| COc1cccc2c1O[C@@H](CN1C3CCC1CC(O)(c1ccc4ccccc4c1)C3)CO2 (some centres unmarked) | µM | 0.0099 |
